Tested on: Staphylococcus aureus 3131 (methicillin resistant)
Experiment: In vitro antibacterial activity, agar dilution method (MIC)
Type: cell-based
Settings: 37° C., 18-20 hrs
Protocol: In vitro antibacterial activity was determined by the agar dilution method as described below. One loopful of each test bacterium on a slant was inoculated into 1 ml of a growth medium (Trypto Soy Broth, Eiken Chemical Co.) and incubated at 37° C. for 18-20 hours. For the growth of Streptococci, Mueller-Hinton broth (Difco) supplemented with 3%(V/V) horse serum was employed. A hundred-fold dilution of the culture is used as an inoculum suspension of the bacterium. […]
MEASURED METRIC: MIC
Note: state the figure and append the unit.

Enquiry: If you can, please state the reported MIC value of CN[C@H](CC(C)C)C(=O)N[C@H]1C(=O)N[C@@H](CC(N)=O)C(=O)N[C@H]2C(=O)N[C@H]3C(=O)N[C@H](C(=O)N[C@H](C(=O)O)c4cc(O)cc(O)c4-c4cc3ccc4O)[C@H](O[C@H]3C[C@](C)(N)[C@@H](O)[C@H](C)O3)c3ccc(c(Cl)c3)Oc3cc2cc(c3O[C@@H]2O[C@H](CO)[C@@H](O)[C@H](O)[C@H]2O[C@H]2C[C@](C)(N)[C@@H](O)[C@H](C)O2)Oc2ccc(cc2)[C@H]1O .
Return: 0.78 µg/mL

// data source = patent US4946941A
